# measurementProtocol: Volume of distribution in cynomolgus monkey at 10 mg/kg, iv
# Format: ADME, organism-based, Macaca fascicularis
# Design: dose 10 mg/kg, route intravenous
# measurementContext: in vivo
readoutKind: Vd (L/kg)

I. COc1cccc(-c2cn(Cc3c(F)cccc3C(F)(F)F)c(=O)n(C[C@H](NCCCC(=O)O)c3ccccc3)c2=O)c1F
II. O=C(O)CCCN[C@@H](Cn1c(=O)c(-c2ccccc2Cl)cn(Cc2c(F)cccc2C(F)(F)F)c1=O)c1ccccc1
Ask: I need your help: which of the pair I , II has higher Vd? API: response body contains the label of the selected item.
Reply: II

----------
# measurementProtocol: Cmax in cynomolgus monkey at 10 mg/kg, po
# Format: ADME, organism-based, Macaca fascicularis
# Set-up: dose 10 mg/kg, route oral
# measurementContext: in vivo
readoutKind: Cmax (ng/mL)

A. COc1cccc(-c2cn(Cc3c(F)cccc3C(F)(F)F)c(=O)n(C[C@H](NCCCC(=O)O)c3ccccc3)c2=O)c1F
B. O=C(O)CCCN[C@@H](Cn1c(=O)c(-c2ccccc2Cl)cn(Cc2c(F)cccc2C(F)(F)F)c1=O)c1ccccc1
Ask: Returns the identifier with the smallest measured Cmax among A and B . API: response body contains the label of the selected item.
Reply: A

----------
# measurementProtocol: Oral bioavailability in Sprague-Dawley rat at 10 mg/kg
# Type: ADME, organism-based
# measurementContext: in vivo
readoutKind: bioavailability (%)

{"cpdSmiles": "O=C(O)CCCN[C@@H](Cn1c(=O)c(-c2ccccc2Cl)cn(Cc2c(F)cccc2C(F)(F)F)c1=O)c1ccccc1", "valueObserved": 3}
{"cpdSmiles": "COc1cccc(-c2cn(Cc3c(F)cccc3C(F)(F)F)c(=O)n(C[C@H](NCCCC(=O)O)c3ccccc3)c2=O)c1F", "valueObserved": 2.4}

----------
# measurementProtocol: Half life in cynomolgus monkey at 10 mg/kg, iv
# Assay type: ADME, organism-based, Macaca fascicularis
# Set-up: dose 10 mg/kg, route intravenous
# measurementContext: in vivo
readoutKind: half-life (h)

P. COc1cccc(-c2cn(Cc3c(F)cccc3C(F)(F)F)c(=O)n(C[C@H](NCCCC(=O)O)c3ccccc3)c2=O)c1F
Q. O=C(O)CCCN[C@@H](Cn1c(=O)c(-c2ccccc2Cl)cn(Cc2c(F)cccc2C(F)(F)F)c1=O)c1ccccc1
Ask: Returns the identifier with the smallest measured half-life among P and Q . API: response body contains the label of the selected item.
Reply: P

----------
# measurementProtocol: Tmax in Sprague-Dawley rat at 10 mg/kg, po or 10 mg/kg, iv
# Type: ADME, organism-based
# measurementContext: in vivo
readoutKind: Tmax (min)

{"cpdSmiles": "COc1cccc(-c2cn(Cc3c(F)cccc3C(F)(F)F)c(=O)n(C[C@H](NCCCC(=O)O)c3ccccc3)c2=O)c1F", "valueObserved": 15}
{"cpdSmiles": "O=C(O)CCCN[C@@H](Cn1c(=O)c(-c2ccccc2Cl)cn(Cc2c(F)cccc2C(F)(F)F)c1=O)c1ccccc1", "valueObserved": 15}

----------
# measurementProtocol: Clearance in cynomolgus monkey at 10 mg/kg, iv
# Format: ADME, organism-based, Macaca fascicularis
# Parameters: dose 10 mg/kg, route intravenous
# measurementContext: in vivo
readoutKind: clearance (mL/min/kg)

P. O=C(O)CCCN[C@@H](Cn1c(=O)c(-c2ccccc2Cl)cn(Cc2c(F)cccc2C(F)(F)F)c1=O)c1ccccc1
Q. COc1cccc(-c2cn(Cc3c(F)cccc3C(F)(F)F)c(=O)n(C[C@H](NCCCC(=O)O)c3ccccc3)c2=O)c1F
Ask: Returns the identifier with the smallest measured clearance among P and Q . API: response body contains the label of the selected item.
Reply: P
(P: 7.9 mL/min/kg, Q: 20.9 mL/min/kg)

----------
# measurementProtocol: Clearance in Sprague-Dawley rat at 10 mg/kg, iv
# Type: ADME, organism-based
# Parameters: dose 10 mg/kg, route intravenous
# measurementContext: in vivo
readoutKind: clearance (mL/min/kg)

I. O=C(O)CCCN[C@@H](Cn1c(=O)c(-c2ccccc2Cl)cn(Cc2c(F)cccc2C(F)(F)F)c1=O)c1ccccc1
II. COc1cccc(-c2cn(Cc3c(F)cccc3C(F)(F)F)c(=O)n(C[C@H](NCCCC(=O)O)c3ccccc3)c2=O)c1F
Ask: I need your help: which of the pair I , II has higher clearance? API: response body contains the label of the selected item.
Reply: II

----------
# measurementProtocol: Tmax in cynomolgus monkey at 10 mg/kg, po
# Format: ADME, organism-based, Macaca fascicularis
# Set-up: dose 10 mg/kg, route oral
# measurementContext: in vivo
readoutKind: Tmax (min)

{"cpdSmiles": "O=C(O)CCCN[C@@H](Cn1c(=O)c(-c2ccccc2Cl)cn(Cc2c(F)cccc2C(F)(F)F)c1=O)c1ccccc1", "unitText": "min", "Tmax": 37.8}
{"cpdSmiles": "COc1cccc(-c2cn(Cc3c(F)cccc3C(F)(F)F)c(=O)n(C[C@H](NCCCC(=O)O)c3ccccc3)c2=O)c1F", "unitText": "min", "Tmax": 30}

----------
# measurementProtocol: Lipophilicity, log D at pH 7.4
# Assay type: physicochemical
# measurementContext: buffer
readoutKind: logD

{"cpdSmiles": "O=C(O)CCCN[C@@H](Cn1c(=O)c(-c2ccccc2Cl)cn(Cc2c(F)cccc2C(F)(F)F)c1=O)c1ccccc1", "readoutKind": "logD", "valueObserved": 2.1}
{"cpdSmiles": "COc1cccc(-c2cn(Cc3c(F)cccc3C(F)(F)F)c(=O)n(C[C@H](NCCCC(=O)O)c3ccccc3)c2=O)c1F", "readoutKind": "logD", "valueObserved": 1.8}

----------
# measurementProtocol: Dissociation constant, pKa of the compound
# Format: physicochemical
readoutKind: pKa
Reply with the value as a number alone.

Ask: Suppose we examine the compound COc1cccc(-c2cn(Cc3c(F)cccc3C(F)(F)F)c(=O)n(C[C@H](NCCCC(=O)O)c3ccccc3)c2=O)c1F ; what pKa value has been reported?
Reply: 4.16

----------
# measurementProtocol: Half life in Sprague-Dawley rat at 10 mg/kg, iv
# Format: ADME, organism-based
# Set-up: dose 10 mg/kg, route intravenous
# measurementContext: in vivo
readoutKind: half-life (min)

{"cpdSmiles": "O=C(O)CCCN[C@@H](Cn1c(=O)c(-c2ccccc2Cl)cn(Cc2c(F)cccc2C(F)(F)F)c1=O)c1ccccc1", "unitText": "min", "half-life": 24}
{"cpdSmiles": "COc1cccc(-c2cn(Cc3c(F)cccc3C(F)(F)F)c(=O)n(C[C@H](NCCCC(=O)O)c3ccccc3)c2=O)c1F", "unitText": "min", "half-life": 18}
